System: UACC-62
Test: NCI tumour cell line growth inhibition, 48 h
Active and inactive are the calls of the source. No stated cut-off is given here; in the data, active = GI50 up to about 1.1 µM and inactive = higher.
OBSERVED_PROPERTY: GI50

COMPOUND	GI50
Cc1ccc(NC(=O)/C(=N/N(C)C)C(C2OC(=O)c3ccccc32)[N+](=O)[O-])cc1 (stereo not drawn)	> 100 µM (inactive)

Batch: GI50 for all items listed.
1. COc1ccc(-c2ccccc2)c2[nH]c3c(c12)CCNC3=O
2. COc1ccccc1-n1c(NN)nc2ccc(Br)cc2c1=O
3. CCN(CC(COc1ccc2c(c1)[n+]([O-])nc(N)[n+]2[O-])OC(C)=O)C(C)=O (stereo not drawn)

OUT:
["> 100 µM (inactive)", "36.6 µM (inactive)", "29.6 µM (inactive)"]

Batch: GI50 for all items listed.
1. O=C(NNC(=O)c1ccccc1O)c1cccc(Br)c1
2. C[C@H]1[C@H](C)CC[C@]2(C(=O)OC3OC(CO)C(O)C(O)C3O)CC[C@]3(C)C(=CC[C@@H]4[C@@]5(C)C[C@H]6OC(=O)c7cc(O)c(O)c(O)c7-c7c(cc(O)c(O)c7O)C(=O)O[C@@H]6C(CO)(CO)[C@@H]5CC[C@]43C)[C@H]12 (stereo partly drawn)
3. O=C1CC2(CCCc3sccc32)C(=O)N1 (stereo not drawn)
4. CC(=O)Oc1ccc2c(c1)oc1c3ccc(OC(C)=O)cc3n(C)c(=O)c21
5. CN(C)c1ccc(C2CC(=O)CC(c3ccc(N(C)C)cc3)C23C(=O)NC(=O)NC3=O)cc1 (stereo not drawn)
6. CCC(=O)OCN1C(=O)C=CC1=O
7. COC(=O)/C(=C/c1ccc(OC)cc1)c1cc(OC)c(OC)c(OC)c1

OUT:
47.3 µM (inactive)
99.3 µM (inactive)
> 100 µM (inactive)
34.8 µM (inactive)
19.5 µM (inactive)
17 µM (inactive)
0.631 µM (active)

* * *

Tested on: COLO 205
Assay: NCI tumour cell line growth inhibition, 48 h
Calls of active or inactive are those of the source. Cut-off read from the data, not from the text of the source: active = GI50 up to about 1.1 µM and inactive = higher.
Classes to choose from: active, inactive

IN: I'd appreciate the recorded outcome for COc1cc(C(C)O)c[n+](CCc2c[nH]c3ccccc23)c1 (stereo unspecified) from this test.
OUT: inactive

IN: I'd appreciate the recorded outcome for CSc1nc(NC2OC(COC(C)=O)C(OC(C)=O)C(OC(C)=O)C2OC(C)=O)c2c(OC(C)=O)c(C)c(=O)oc2n1 (stereo unspecified) from this test.
OUT: inactive

IN: I'd appreciate the recorded outcome for "O=C(N/N=C/c1ccc(Br)cc1)N/N=C/c1ccc(Br)cc1" from this test.
OUT: inactive

IN: I'd appreciate the recorded outcome for OCC(O)C(O)C(O)C(O)c1nc2cc(Cl)ccc2[nH]1 (stereo unspecified) from this test.
OUT: inactive

IN: I'd appreciate the recorded outcome for NC1=NN(c2ccccc2)C(=O)C1C(=O)C(=O)NC1C2CC3CC(C2)CC1C3 (stereo unspecified) from this test.
OUT: inactive

IN: I'd appreciate the recorded outcome for CC1(C)Oc2ccc3c(=O)c4ccccc4oc3c2C1C(=O)O (stereo unspecified) from this test.
OUT: inactive

IN: I'd appreciate the recorded outcome for O=C(O)C1C2C=CC(O2)C1C(=O)NCc1ccccn1 (stereo unspecified) from this test.
OUT: inactive

IN: I'd appreciate the recorded outcome for "O=S(=O)(Sc1ccc(Cl)cc1)c1ccc(Cl)cc1" from this test.
OUT: inactive
